Data origin: ChEMBL document CHEMBL1155883

Test system: Human immunodeficiency virus 1
Experiment: Resistance index, ratio of EC50 for drug-resistant HIV1 isolate with reverse transcriptase Y188L mutation to EC50 for wild type HIV1 NL4-3
Format: functional
# reported Ratio EC50; entries follow
Please give the numeric answer without any surrounding text.

{"SMILES REPRESENTATION": "Cc1c(Cc2c(Cl)cccc2Cl)nc(SCC(=O)c2ccccc2)[nH]c1=O", "SYSTEM TESTED": "Human immunodeficiency virus 1", "Ratio EC50": 232}
{"SMILES REPRESENTATION": "CCc1c(Cc2c(F)cccc2Cl)nc(SCC(=O)c2ccccc2)[nH]c1=O", "SYSTEM TESTED": "Human immunodeficiency virus 1", "Ratio EC50": 782}

Moving on to the next molecule.
Query string: Fill in reported Ratio EC50 for this entry: CC(C)c1c(Cc2c(F)cccc2Cl)nc(SCC(=O)c2ccccc2)[nH]c1=O
Result string: 1540

====

Tested on: Human immunodeficiency virus type 1 reverse transcriptase (Human immunodeficiency virus 1), Q72547 [K103N]
# ID50 per record follows

{"SMILES REPRESENTATION": "Cc1c(Cc2c(Cl)cccc2Cl)nc(SCC(=O)c2ccc(F)cc2)[nH]c1=O", "ID50": "> 40 µM"}
{"SMILES REPRESENTATION": "COc1ccc(C(=O)CSc2nc(Cc3c(F)cccc3Cl)cc(=O)[nH]2)cc1", "ID50": "3.4 µM"}
{"SMILES REPRESENTATION": "CCc1c(Cc2c(F)cccc2Cl)nc(SCC(=O)c2ccccc2)[nH]c1=O", "ID50": "> 40 µM"}

# context switch: different compound, same ID50
Query string: Output ID50 of CCc1c(Cc2c(Cl)cccc2Cl)nc(SCC(=O)c2ccc(F)cc2)[nH]c1=O
Result string: 1.79 µM

====

Test: Cytotoxicity against human MT4 cells by MTT assay
Assay type: cell-based
Measured CC50, listed per entry for reference.

The following compounds have reported results that may help.
{"COMPOUND": "Cc1ccc(CSc2nc(Cc3c(F)cccc3F)c(C)c(=O)[nH]2)c(C)c1", "CC50": "> 65 µM"}
{"COMPOUND": "Cc1cc(C)cc(CSc2nc(Cc3c(F)cccc3F)c(C)c(=O)[nH]2)c1", "CC50": "> 65 µM"}
{"COMPOUND": "Cc1c(Cc2c(F)cccc2F)nc(SCC(=O)c2ccccc2)[nH]c1=O", "CC50": "65 µM"}
{"COMPOUND": "CC(C)c1c(Cc2c(Cl)cccc2Cl)nc(SCC(=O)c2ccc(F)cc2)[nH]c1=O", "CC50": "> 54 µM"}
{"COMPOUND": "Cc1c(Cc2c(F)cccc2F)nc(SCC(=O)c2ccc(F)cc2)[nH]c1=O", "CC50": "> 62 µM"}

Please find the next compound below.
Query string: Return the recorded CC50 value; entry: COc1ccc(C(=O)CSc2nc(Cc3c(Cl)cccc3Cl)c(C(C)C)c(=O)[nH]2)cc1
Result string: > 14 µM

====

Test system: Human immunodeficiency virus type 1 reverse transcriptase (Human immunodeficiency virus 1), Q72547 [L100I]
PROPERTY: ID50 (µM)
Answer in µM, number only, no unit symbol.

{"SMILES REPRESENTATION": "CCc1c(Cc2c(F)cccc2Cl)nc(SCC(=O)c2ccccc2)[nH]c1=O", "UNIT ABBREV": "µM", "RECORDED RESULT": 9.7}

Now look at this one.
Query string: Write down ID50 measured for item Cc1c(Cc2c(F)cccc2Cl)nc(SCC(=O)c2ccccc2)[nH]c1=O
Result string: 3.3

====

Test system: Human immunodeficiency virus type 1 reverse transcriptase (Human immunodeficiency virus 1), Q72547 [K103N]
Quick list: ID50 per entry.

The examples below pair each entry with its known result.
{"MOLECULE": "COc1ccc(C(=O)CSc2nc(Cc3c(F)cccc3Cl)c(C)c(=O)[nH]2)cc1", "PROPERTY": "ID50", "RECORDED RESULT": "2.7 µM"}
{"MOLECULE": "CC(C)c1c(Cc2c(F)cccc2Cl)nc(SCC(=O)c2ccccc2)[nH]c1=O", "PROPERTY": "ID50", "RECORDED RESULT": "4.5 µM"}
{"MOLECULE": "CCc1c(Cc2c(F)cccc2Cl)nc(SCC(=O)c2ccc(OC)cc2)[nH]c1=O", "PROPERTY": "ID50", "RECORDED RESULT": "> 40 µM"}
{"MOLECULE": "COc1ccc(C(=O)CSc2nc(Cc3c(F)cccc3F)c(C(C)C)c(=O)[nH]2)cc1", "PROPERTY": "ID50", "RECORDED RESULT": "37.3 µM"}
{"MOLECULE": "CCc1c(Cc2c(F)cccc2F)nc(SCC(=O)c2ccc(F)cc2)[nH]c1=O", "PROPERTY": "ID50", "RECORDED RESULT": "3.65 µM"}

Query string: Please give measured ID50 of the following entry: CCC(C)c1c(Cc2c(F)cccc2Cl)nc(SCC(=O)c2ccc(OC)cc2)[nH]c1=O (stereo not given)
Result string: 0.59 µM

Query string: Dear colleague, please send me the reported ID50 for CCc1c(Cc2c(F)cccc2F)nc(SCC(=O)c2ccccc2)[nH]c1=O when you can.
Result string: 3.7 µM

Query string: Look up and report measured ID50 for this entry: CC(C)c1c(Cc2c(Cl)cccc2Cl)nc(SCC(=O)c2ccccc2)[nH]c1=O
Result string: 27.7 µM

Query string: Give me measured ID50, please, for this molecule: CCc1c(Cc2c(F)cccc2Cl)nc(SCC(=O)c2ccc(F)cc2)[nH]c1=O
Result string: 1.64 µM

Query string: Supply ID50 value. Item: COc1ccc(C(=O)CSc2nc(Cc3c(Cl)cccc3Cl)c(C(C)C)c(=O)[nH]2)cc1
Result string: > 40 µM

====

Test system: Human immunodeficiency virus type 1 reverse transcriptase (Human immunodeficiency virus 1), Q72547 [L100I]
Would you mind classing the entries by ID50? Ranges: L (below 4 µM), M (4 µM to below 10 µM), H (10 µM or more)

{"COMPOUND": "Cc1c(Cc2c(F)cccc2Cl)nc(SCC(=O)c2ccc(F)cc2)[nH]c1=O", "ASSIGNED CATEGORY": "M"}
{"COMPOUND": "Cc1c(Cc2c(F)cccc2F)nc(SCC(=O)c2ccccc2)[nH]c1=O", "ASSIGNED CATEGORY": "H"}
{"COMPOUND": "CCc1c(Cc2c(F)cccc2Cl)nc(SCC(=O)c2ccc(OC)cc2)[nH]c1=O", "ASSIGNED CATEGORY": "L"}
{"COMPOUND": "CCC(C)c1c(Cc2c(F)cccc2Cl)nc(SCC(=O)c2ccc(F)cc2)[nH]c1=O (stereo not given)", "ASSIGNED CATEGORY": "H"}
{"COMPOUND": "CCc1c(Cc2c(Cl)cccc2Cl)nc(SCC(=O)c2ccccc2)[nH]c1=O", "ASSIGNED CATEGORY": "L"}

Next up:
Query string: Could you place Cc1c(Cc2c(Cl)cccc2Cl)nc(SCC(=O)c2ccc(F)cc2)[nH]c1=O in its proper category? Many thanks.
Result string: H

====

The entries below are paired with their reported Ratio.
System: Human immunodeficiency virus 1
Test: Resistance index, ratio of ID50 for reverse transcriptase Y181I mutant to IC50 for wild-type HIV1 reverse transcriptase
Give the figure only, with no unit attached.

Would you please look over these solved cases?
{"COMPOUND": "Cc1c(Cc2c(F)cccc2F)nc(SCC(=O)c2ccc(F)cc2)[nH]c1=O", "Ratio": 4}
{"COMPOUND": "CCc1c(Cc2c(Cl)cccc2Cl)nc(SCC(=O)c2ccccc2)[nH]c1=O", "Ratio": 5}
{"COMPOUND": "O=C(CSc1nc(Cc2c(F)cccc2Cl)cc(=O)[nH]1)c1ccc(F)cc1", "Ratio": 10}
{"COMPOUND": "CCc1c(Cc2c(Cl)cccc2Cl)nc(SCC(=O)c2ccc(OC)cc2)[nH]c1=O", "Ratio": 6}
{"COMPOUND": "Cc1c(Cc2c(F)cccc2Cl)nc(SCC(=O)c2ccc(F)cc2)[nH]c1=O", "Ratio": 4}
{"COMPOUND": "Cc1c(Cc2c(F)cccc2F)nc(SCC(=O)c2ccccc2)[nH]c1=O", "Ratio": 5}

Query string: Read off the recorded Ratio for O=C(CSc1nc(Cc2c(Cl)cccc2Cl)cc(=O)[nH]1)c1ccccc1
Result string: 22

Query string: Output measured Ratio for this item: CCC(C)c1c(Cc2c(F)cccc2Cl)nc(SCC(=O)c2ccc(OC)cc2)[nH]c1=O (stereo not given)
Result string: 1130

Query string: Respond only with Ratio recorded for CCc1c(Cc2c(F)cccc2F)nc(SCC(=O)c2ccc(F)cc2)[nH]c1=O
Result string: 8

Query string: Retrieve Ratio measured for COc1ccc(C(=O)CSc2nc(Cc3c(F)cccc3F)c(C)c(=O)[nH]2)cc1 and print it.
Result string: 4
